# run conditions: in methanol, 298.15 K

structure smiles string	solubility (mole fraction)
CCS(=O)(=O)O.COC(=O)c1ccc2c(C(=Nc3ccc(N(C)C(=O)CN4CCN(C)CC4)cc3)c3ccccc3)c(O)[nH]c2c1	0.00238

----------
# run conditions: in ethanol, 318.15 K

structure smiles string	solubility (mole fraction)
CCS(=O)(=O)O.COC(=O)c1ccc2c(C(=Nc3ccc(N(C)C(=O)CN4CCN(C)CC4)cc3)c3ccccc3)c(O)[nH]c2c1	0.000546

----------
# run conditions: in n-butanol, 288.15 K

structure smiles string	solubility (mole fraction)
CCS(=O)(=O)O.COC(=O)c1ccc2c(C(=Nc3ccc(N(C)C(=O)CN4CCN(C)CC4)cc3)c3ccccc3)c(O)[nH]c2c1	1.82e-05

----------
# run conditions: in acetone, 318.15 K
observed property: solubility (mole fraction)

structure smiles string	observed property	reported result
CCS(=O)(=O)O.COC(=O)c1ccc2c(C(=Nc3ccc(N(C)C(=O)CN4CCN(C)CC4)cc3)c3ccccc3)c(O)[nH]c2c1	solubility (mole fraction)	1.3e-05

----------
# run conditions: in acetone, 308.15 K
observed property: solubility (mole fraction)

structure smiles string	reported result
CCS(=O)(=O)O.COC(=O)c1ccc2c(C(=Nc3ccc(N(C)C(=O)CN4CCN(C)CC4)cc3)c3ccccc3)c(O)[nH]c2c1	9.74e-06

----------
# run conditions: in ethanol, 293.15 K

structure smiles string	solubility (mole fraction)
CCS(=O)(=O)O.COC(=O)c1ccc2c(C(=Nc3ccc(N(C)C(=O)CN4CCN(C)CC4)cc3)c3ccccc3)c(O)[nH]c2c1	0.000253

----------
# run conditions: in ethanol, 283.15 K

structure smiles string	solubility (mole fraction)
CCS(=O)(=O)O.COC(=O)c1ccc2c(C(=Nc3ccc(N(C)C(=O)CN4CCN(C)CC4)cc3)c3ccccc3)c(O)[nH]c2c1	0.000179

----------
# run conditions: in acetonitrile, 313.15 K

structure smiles string	solubility (mole fraction)
CCS(=O)(=O)O.COC(=O)c1ccc2c(C(=Nc3ccc(N(C)C(=O)CN4CCN(C)CC4)cc3)c3ccccc3)c(O)[nH]c2c1	5.13e-05

----------
# run conditions: in isopropanol, 308.15 K
observed property: solubility (mole fraction)

structure smiles string	reported result
CCS(=O)(=O)O.COC(=O)c1ccc2c(C(=Nc3ccc(N(C)C(=O)CN4CCN(C)CC4)cc3)c3ccccc3)c(O)[nH]c2c1	7.4e-05

----------
# run conditions: in methanol, 288.15 K

structure smiles string	solubility (mole fraction)
CCS(=O)(=O)O.COC(=O)c1ccc2c(C(=Nc3ccc(N(C)C(=O)CN4CCN(C)CC4)cc3)c3ccccc3)c(O)[nH]c2c1	0.00169

----------
# run conditions: in methanol, 303.15 K
observed property: solubility (mole fraction)

structure smiles string	observed property	reported result
CCS(=O)(=O)O.COC(=O)c1ccc2c(C(=Nc3ccc(N(C)C(=O)CN4CCN(C)CC4)cc3)c3ccccc3)c(O)[nH]c2c1	solubility (mole fraction)	0.00281

----------
# run conditions: in dichloromethane, 303.15 K

structure smiles string	solubility (mole fraction)
CCS(=O)(=O)O.COC(=O)c1ccc2c(C(=Nc3ccc(N(C)C(=O)CN4CCN(C)CC4)cc3)c3ccccc3)c(O)[nH]c2c1	0.00022

----------
# run conditions: in n-propanol, 303.15 K

structure smiles string	solubility (mole fraction)
CCS(=O)(=O)O.COC(=O)c1ccc2c(C(=Nc3ccc(N(C)C(=O)CN4CCN(C)CC4)cc3)c3ccccc3)c(O)[nH]c2c1	0.000156
